System: MV4-11 cells
Assay: Dose response cell viability assay (PrestoBlue, day 5)
Type: cell-based
Conditions: Homo sapiens, MV4-11, 120 h; PrestoBlue at day 5
observed_property: EC50 (nM)

[I] CNc1ncc2c(-c3ccc(N4CCN(C)CC4)nc3)nn(CC3CCCC3)c2n1 [Compound 13b]
[II] CNc1ncc2c(-c3ccc(N4CCN(C(=O)C(C)(C)C)CC4)nc3)nn(CC3CCCC3)c2n1 [Compound 13d]
[III] CCN1CCN(c2ccc(-c3nn(CC4CCCC4)c4nc(NC)ncc34)cn2)CC1 [Compound 13c]
Falling order of EC50, please. In plain terms: list the labels in the order you were asked to. III, II, I

---

Test system: MOLM-13 cells
Assay: Dose response cell viability assay (PrestoBlue, day 5)
Format: cell-based
Settings: Homo sapiens, MOLM-13, 120 h; PrestoBlue at day 5
observed_property: EC50 (µM)

[
  {
    "compound": "CCN1CCN(c2ccc(-c3nn(CC4CCCC4)c4nc(NC)ncc34)cn2)CC1 [Compound 13c]",
    "EC50 / µM": 0.94
  }
]

[P] CNc1ncc2c(-c3ccc(N4CCN(C)CC4)nc3)nn(CC3CCCC3)c2n1 [Compound 13b]
[Q] CNc1ncc2c(-c3ccc(N4CCN(C(=O)C(C)(C)C)CC4)nc3)nn(CC3CCCC3)c2n1 [Compound 13d]
Task for the reader: decide whether P or Q has the larger EC50. Indicate your choice by writing its label. Q
(Q: 1.3 µM, P: 0.04 µM)
